assay: chemical genetic growth profiling, strain panel (AID 1159580);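 note: tested at 20 µM; growth read once vehicle control cultures reached saturation at 30 °C; lower values mean less growth of the strain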; settings: S. cerevisiae deletion strains, growth OD, locus YML124C, strain tub3
Screen size: about 5,500 compounds; about 2,000 (36%) were called active. Another 18% or so got no clear call; they are omitted. Cut-off read from the data, not from the text of the source: active = normalized growth mostly below about 0.91 (no sharp cut-off); inconclusive = no clear call, values can overlap the other calls; inactive = mostly above about 0.92. The list shows a part of the results.
Choose one outcome from this list and give only that: active, inactive

Example entries begin here.
>  <Compound>
CC(NCCC(c1ccccc1)c1ccccc1)c1ccccc1 (stereo not drawn)

>  <Class>
inactive

$$$$
>  <Compound>
COc1c2ccoc2cc2oc(C)cc(=O)c12

>  <Class>
inactive

$$$$
>  <Compound>
O=c1oc2c(O)c(O)cc3c(=O)oc4c(O)c(O)cc1c4c23

>  <Class>
active

$$$$

Any idea what this test logged for COc1c2occc2c(OC)c2c(=O)cc(C)oc12 ?
inactive

Moving on to the next compound: O=c1c(O)c(-c2ccc(O)c(O)c2)oc2cc(O)ccc12
inactive

Now this one: CC1=C(O)C(=O)C=C2C1=CC=C1[C@@]2(C)CC[C@@]2(C)[C@@H]3C[C@](C)(C(=O)O)CC[C@]3(C)CC[C@]12C
active

Next compound: NC[C@H]1O[C@H](O[C@H]2[C@H](O)[C@@H](O[C@H]3O[C@H](CO)[C@@H](O)[C@H](N)[C@H]3O)[C@H](N)C[C@@H]2N)[C@H](N)C[C@@H]1O
inactive

Continue with COc1cc2c(cc1OC)[C@@H]1C(=O)c3ccc4c(c3O[C@@H]1CO2)CC(C(C)C)O4 (stereo partly drawn)
inactive

Moving on to the next compound: CC[C@@H](CO)NC(=O)[C@@H]1C=C2c3cccc4[nH]cc(c34)C[C@H]2N(C)C1
inactive

Next up: COC1(C)CCC2OC2(C)CCC2C1CC2(C)C (stereo not drawn)
inactive

Here is the next compound: COc1ccc(C(=O)O)c(O)c1OC
inactive

What do we get for COc1cc2c(cc1O)CCNC2C (stereo not drawn) ?
inactive

Entry source: PubChem BioAssay AID1159580
